ASSAY_NAME: Drug degradation at 4 degree C measured after 3 weeks by 31P-NMR analysis
Assay type: physicochemical
CONDITIONS: read-out: Drug degradation
MEASURED_PROPERTY: degraded at 504 h
Kindly format the answer as number then unit.

### Prompt Return reported degraded at 504 h; argument: `O=P(OCc1ccccc1)(OCc1ccccc1)O[C@@H]1O[C@H](COCc2ccccc2)[C@@H](OP(=O)(OCc2ccccc2)OCc2ccccc2)[C@H](OP(=O)(OCc2ccccc2)OCc2ccccc2)[C@H]1OCc1ccccc1`
### Response 30%

---

SUBJECT_OF_TEST: Inositol 1,4,5-trisphosphate-gated calcium channel ITPR1 (Rattus norvegicus, UniProt P29994)
Sequence (P29994 whole entry): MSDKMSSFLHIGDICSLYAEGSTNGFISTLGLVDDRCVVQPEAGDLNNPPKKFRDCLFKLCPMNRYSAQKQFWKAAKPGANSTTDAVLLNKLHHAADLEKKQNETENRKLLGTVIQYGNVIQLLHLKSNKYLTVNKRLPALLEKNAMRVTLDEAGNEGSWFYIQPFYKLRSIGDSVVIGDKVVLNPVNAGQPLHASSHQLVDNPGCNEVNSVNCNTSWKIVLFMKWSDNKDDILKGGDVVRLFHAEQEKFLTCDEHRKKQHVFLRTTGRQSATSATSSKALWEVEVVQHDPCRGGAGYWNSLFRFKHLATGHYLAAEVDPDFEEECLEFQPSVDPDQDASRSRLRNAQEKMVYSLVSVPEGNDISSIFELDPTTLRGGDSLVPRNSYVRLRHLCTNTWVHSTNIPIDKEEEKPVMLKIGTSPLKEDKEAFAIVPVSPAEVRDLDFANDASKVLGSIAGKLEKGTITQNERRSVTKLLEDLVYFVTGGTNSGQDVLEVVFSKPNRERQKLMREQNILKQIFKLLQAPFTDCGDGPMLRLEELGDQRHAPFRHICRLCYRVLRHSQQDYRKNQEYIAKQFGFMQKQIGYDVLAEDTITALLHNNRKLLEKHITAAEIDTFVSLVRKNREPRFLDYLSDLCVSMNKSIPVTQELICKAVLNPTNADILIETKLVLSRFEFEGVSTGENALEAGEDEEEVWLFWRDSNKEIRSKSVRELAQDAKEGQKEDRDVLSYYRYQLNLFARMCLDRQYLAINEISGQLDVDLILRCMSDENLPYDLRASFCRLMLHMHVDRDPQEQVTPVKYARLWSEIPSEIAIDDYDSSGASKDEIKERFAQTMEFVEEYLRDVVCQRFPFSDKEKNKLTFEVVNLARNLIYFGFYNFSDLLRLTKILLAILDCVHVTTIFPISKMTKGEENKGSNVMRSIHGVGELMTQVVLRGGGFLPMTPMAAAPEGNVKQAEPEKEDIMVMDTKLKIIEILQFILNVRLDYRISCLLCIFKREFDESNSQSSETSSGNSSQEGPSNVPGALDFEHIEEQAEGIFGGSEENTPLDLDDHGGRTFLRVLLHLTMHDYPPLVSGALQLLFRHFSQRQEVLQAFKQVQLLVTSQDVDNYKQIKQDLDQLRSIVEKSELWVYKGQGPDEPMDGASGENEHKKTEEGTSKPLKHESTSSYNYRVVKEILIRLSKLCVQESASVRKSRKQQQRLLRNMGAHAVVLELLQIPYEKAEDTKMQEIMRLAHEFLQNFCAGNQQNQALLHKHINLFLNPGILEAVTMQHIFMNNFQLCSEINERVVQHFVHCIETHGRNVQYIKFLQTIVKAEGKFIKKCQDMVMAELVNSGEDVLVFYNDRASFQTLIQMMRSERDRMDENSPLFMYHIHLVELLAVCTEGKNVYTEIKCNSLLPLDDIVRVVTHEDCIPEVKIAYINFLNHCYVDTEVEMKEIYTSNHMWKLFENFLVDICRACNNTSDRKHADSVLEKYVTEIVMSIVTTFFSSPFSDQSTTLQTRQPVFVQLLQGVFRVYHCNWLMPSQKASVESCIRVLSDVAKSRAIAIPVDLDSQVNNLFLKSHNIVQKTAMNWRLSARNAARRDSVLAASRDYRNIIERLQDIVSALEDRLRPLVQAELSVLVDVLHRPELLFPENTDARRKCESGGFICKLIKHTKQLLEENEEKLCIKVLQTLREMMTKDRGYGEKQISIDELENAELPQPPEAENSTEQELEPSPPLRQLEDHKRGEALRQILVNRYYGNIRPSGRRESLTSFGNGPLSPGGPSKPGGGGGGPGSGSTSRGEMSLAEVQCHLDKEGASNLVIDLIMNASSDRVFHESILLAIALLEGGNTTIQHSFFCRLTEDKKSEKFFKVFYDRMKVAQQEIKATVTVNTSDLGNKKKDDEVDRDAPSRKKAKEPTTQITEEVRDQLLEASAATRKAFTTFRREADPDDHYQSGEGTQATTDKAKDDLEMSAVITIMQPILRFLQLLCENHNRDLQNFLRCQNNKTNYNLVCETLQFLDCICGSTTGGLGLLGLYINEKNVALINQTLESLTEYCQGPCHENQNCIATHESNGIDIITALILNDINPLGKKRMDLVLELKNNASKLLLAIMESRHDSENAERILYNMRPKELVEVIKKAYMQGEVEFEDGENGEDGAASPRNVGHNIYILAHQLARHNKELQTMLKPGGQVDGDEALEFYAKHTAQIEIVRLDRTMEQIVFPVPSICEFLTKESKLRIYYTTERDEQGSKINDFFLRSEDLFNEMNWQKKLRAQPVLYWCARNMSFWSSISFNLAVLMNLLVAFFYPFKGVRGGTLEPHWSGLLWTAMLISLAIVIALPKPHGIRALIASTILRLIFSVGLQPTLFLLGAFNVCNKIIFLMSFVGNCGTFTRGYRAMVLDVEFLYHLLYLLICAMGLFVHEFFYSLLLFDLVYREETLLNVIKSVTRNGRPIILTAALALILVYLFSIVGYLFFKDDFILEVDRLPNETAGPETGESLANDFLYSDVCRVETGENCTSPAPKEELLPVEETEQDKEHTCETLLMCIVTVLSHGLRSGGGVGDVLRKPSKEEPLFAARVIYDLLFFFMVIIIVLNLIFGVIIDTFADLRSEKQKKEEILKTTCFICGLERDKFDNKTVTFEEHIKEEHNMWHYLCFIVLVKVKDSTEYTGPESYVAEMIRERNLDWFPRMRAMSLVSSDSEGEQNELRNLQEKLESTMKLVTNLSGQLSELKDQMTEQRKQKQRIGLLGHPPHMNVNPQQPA
ASSAY_NAME: Agonist activity at rat IP3R1 expressed in HEK cells assessed as increase in calcium release in cytosol by measuring fluorescence signal by Mag-Fluo4 dye based assay
Assay type: cell-based
MEASURED_PROPERTY: EC50 (nM)
Give the value, in units of nM, as a plain number.

SMILES_CODE: Nc1ncnc2c1ncn2[C@@H]1O[C@H](CO)[C@@H](O[C@H]2O[C@H](CO)[C@@H](OP(=O)(O)O)[C@H](OP(=O)(O)O)[C@H]2O)[C@H]1OP(=O)(O)O
VALUE_UNIT: nM
OBSERVED_MEASUREMENT: 24
--
SMILES_CODE: CCN(CC)CC.CCN(CC)CC.CCN(CC)CC.O=P(O)(O)O[C@H]1O[C@H](CO)[C@@H](OP(=O)(O)O)[C@H](OP(=O)(O)O)[C@H]1O
VALUE_UNIT: nM
OBSERVED_MEASUREMENT: 2960

Now for a further molecule.
### Prompt What value of measured EC50 is listed for `CCN(CC)CC.CCN(CC)CC.CCN(CC)CC.O=P(O)(O)O[C@@H]1O[C@H](CO)[C@@H](OP(=O)(O)O)[C@H](OP(=O)(O)O)[C@H]1O` ?
### Response 80

---

SUBJECT_OF_TEST: Inositol 1,4,5-trisphosphate-gated calcium channel ITPR1 (Rattus norvegicus)
ASSAY_NAME: Displacement of [3H]-IP3 from IP3R1 in Wistar rat cerebellar membrane measured after 5 mins by liquid scintillation counting method
MEASURED_PROPERTY: Kd (nM)
A number alone suffices; assume nM.

The following compounds have reported results that may help.
COMPOUND: CO[C@@H]1O[C@@H](COP(=O)(O)O)[C@H](OP(=O)(O)O)[C@@H](O)[C@@H]1OP(=O)(O)O
SUBJECT_OF_TEST: Inositol 1,4,5-trisphosphate-gated calcium channel ITPR1 (Rattus norvegicus)
Kd (nM): 549

COMPOUND: CCN(CC)CC.CCN(CC)CC.CCN(CC)CC.O=P(O)(O)O[C@@H]1O[C@H](CO)[C@@H](OP(=O)(O)O)[C@H](OP(=O)(O)O)[C@H]1O
SUBJECT_OF_TEST: Inositol 1,4,5-trisphosphate-gated calcium channel ITPR1 (Rattus norvegicus)
Kd (nM): 11.2

COMPOUND: Nc1ncnc2c1ncn2[C@@H]1O[C@H](CO)[C@@H](O[C@H]2O[C@H](CO)[C@@H](OP(=O)(O)O)[C@H](OP(=O)(O)O)[C@H]2O)[C@H]1OP(=O)(O)O [ADENOPHOSTIN A]
SUBJECT_OF_TEST: Inositol 1,4,5-trisphosphate-gated calcium channel ITPR1 (Rattus norvegicus)
Kd (nM): 1.4

COMPOUND: CCN(CC)CC.CCN(CC)CC.CCN(CC)CC.O=P(O)(O)O[C@H]1O[C@H](CO)[C@@H](OP(=O)(O)O)[C@H](OP(=O)(O)O)[C@H]1O
SUBJECT_OF_TEST: Inositol 1,4,5-trisphosphate-gated calcium channel ITPR1 (Rattus norvegicus)
Kd (nM): 129

### Prompt Record request: Kd value, item `CO[C@@H]1O[C@@H](COP(=O)(O)O)[C@H](O)[C@@H](OP(=O)(O)O)[C@@H]1OP(=O)(O)O`
### Response 1230
